All values here come from ChEMBL document CHEMBL4804282.

assay: Half-life in female FVB mice at 30 mg/kg, po; format: ADME, organism-based; conditions: mouse, in vivo
parameter.measured: half-life (h)
Numbers only; they are read as h.

Enquiry: Kindly indicate its recorded half-life. Item: CN1CCN(C(=O)c2ccc3cc(CCNc4ccnc5ccc(C#N)cc45)ccc3c2)CC1
Return: 3.8

---

experiment: Half-life in female FVB mouse at 27 mg/kg, ip by LC/MS/MS analysis; assay type: ADME, organism-based; conditions: in vivo
parameter.measured: half-life (min)
A number alone suffices; assume min.

Enquiry: Provide one value: measured half-life of CN1CCN(C(=O)c2ccc3cc(CCNc4ncnc5ccc(C#N)cc45)ccc3c2)CC1 [SENEXIN B]
Return: 10.2

---

assay: AUC in female FVB mouse at 27 mg/kg, ip by LC/MS/MS analysis; format: ADME, organism-based; parameters: dose 27 mg/kg; details: in vivo
parameter.measured: AUC (ng·h/mL)
I only need the number, in ng·h/mL, no unit after it.

Enquiry: Look up and state reported AUC for CN1CCN(C(=O)c2ccc3cc(CCNc4ncnc5ccc(C#N)cc45)ccc3c2)CC1 [SENEXIN B]
Return: 1760

---

experiment: Elimination rate in female FVB mouse at 19 mg/kg, ip by LC/MS/MS analysis; format: ADME, organism-based; conditions: in vivo
parameter.measured: k el (s⁻¹)
// note: answer is a bare numeric in s⁻¹

Enquiry: // Input: CN1CCN(C(=O)c2ccc3cc(CCNc4ccnc5ccc(C#N)cc45)ccc3c2)CC1 . Output its k el only.
Return: 0.000261

---

assay: Elimination rate in female FVB mouse at 27 mg/kg, ip by LC/MS/MS analysis; format: ADME, organism-based; conditions: in vivo
parameter.measured: k el
The number alone won't do; follow it with the unit.

Enquiry: Consider the compound CN1CCN(C(=O)c2ccc3cc(CCNc4ncnc5ccc(C#N)cc45)ccc3c2)CC1 and give its recorded k el.
Return: 0.00111 s⁻¹

---

assay: Ratio of tumor to blood biodistribution in male NcrNU mouse xenografted with 22Rv1 human xenografts at 20 mg/kg, ip; format: ADME, organism-based, Serum/Tumor
parameter.measured: Kp

Enquiry: Query Kp for CN1CCN(C(=O)c2ccc3cc(CCNc4ccnc5ccc(C#N)cc45)ccc3c2)CC1
Return: 5
